Reference source: ChEMBL document CHEMBL1212840

Tested on: Leishmania donovani
Experiment: Antileishmanial activity against Leishmania donovani MHOM/SD/001S-2D promastigotes after 72 hrs by MTT assay
Type: functional, organism-based
Square brackets hold non-standard residues; d marks the D form. Peptide text beside a SMILES is read from it. Lys(Me3) = C[N+](C)(C)CCCC[C@H](N)C(=O)O
Please respond with reported LC50 for every item in the list.
Numbers only, in µM.

[[record]]
compound = "CC[C@H](C)[C@H](NC(=O)[C@H](CCCCN)NC(=O)[C@H](CCCCN)NC(=O)[C@H](Cc1ccccc1)NC(=O)[C@H](CC(C)C)NC(=O)[C@H](CCCC[N+](C)(C)C)NC(=O)[C@H](Cc1c[nH]c2ccccc12)NC(=O)[C@@H](N)CCCC[N+](C)(C)C)C(=O)NCC(=O)N[C@@H](C)C(=O)N[C@H](C(=O)N[C@@H](CC(C)C)C(=O)N[C@@H](CCCCN)C(=O)N[C@H](C(=O)N[C@@H](CC(C)C)C(N)=O)C(C)C)C(C)C.[Cl-].[Cl-] (H-[Lys(Me3)]W[Lys(Me3)]LFKKIGAVLKVL-NH2)"
measurementtype = "LC50"
valueobserved = 15.5


Prompt line: Give its LC50 value. Item: CC[C@H](C)[C@H](NC(=O)[C@H](CCCC[N+](C)(C)C)NC(=O)[C@H](CCCC[N+](C)(C)C)NC(=O)[C@H](Cc1ccccc1)NC(=O)[C@H](CC(C)C)NC(=O)[C@H](CCCCN)NC(=O)[C@H](Cc1c[nH]c2ccccc12)NC(=O)[C@@H](N)CCCCN)C(=O)NCC(=O)N[C@@H](C)C(=O)N[C@H](C(=O)N[C@@H](CC(C)C)C(=O)N[C@@H](CCCCN)C(=O)N[C@H](C(=O)N[C@@H](CC(C)C)C(N)=O)C(C)C)C(C)C.[Cl-].[Cl-] (H-KWKLF[Lys(Me3)][Lys(Me3)]IGAVLKVL-NH2)
Response line: 5.3
